Each recorded value in this set is attributed to ChEMBL document CHEMBL1961873.

Listing: inhibition of selected molecules
# Subject Of Test: Mitogen-activated protein kinase 9 (Homo sapiens)
# Condition: at 0.1 µM;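 also: values are mean inhibition of JNK2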

[
  {
    "Smiles Str": "COc1cccc(-n2ncc3c(N/N=C/c4ccc(F)cc4)ncnc32)c1",
    "Subject Of Test": "Mitogen-activated protein kinase 9 (Homo sapiens)",
    "Unit String": "%",
    "inhibition": 1.94
  },
  {
    "Smiles Str": "CCN(CC)S(=O)(=O)c1ccc(OC)c(Nc2ncc(-c3ccccc3)o2)c1",
    "Subject Of Test": "Mitogen-activated protein kinase 9 (Homo sapiens)",
    "Unit String": "%",
    "inhibition": 2.31
  },
  {
    "Smiles Str": "Cc1ccc(O)cc1Nc1ccnc2cc(-c3ccccn3)ccc12",
    "Subject Of Test": "Mitogen-activated protein kinase 9 (Homo sapiens)",
    "Unit String": "%",
    "inhibition": 2.32
  },
  {
    "Smiles Str": "NS(=O)(=O)c1ccc(N/N=C2\\C(=O)Nc3ccc4ncccc4c32)cc1",
    "Subject Of Test": "Mitogen-activated protein kinase 9 (Homo sapiens)",
    "Unit String": "%",
    "inhibition": 6.07
  },
  {
    "Smiles Str": "Nc1nc(-c2cccc(Cl)c2)c(-c2ccc3ncccc3n2)s1",
    "Subject Of Test": "Mitogen-activated protein kinase 9 (Homo sapiens)",
    "Unit String": "%",
    "inhibition": 5.19
  },
  {
    "Smiles Str": "CCCN1CCC(c2ccc(Nc3nc(Nc4cc(F)ccc4C(N)=O)c4cc[nH]c4n3)c(OC)c2)CC1",
    "Subject Of Test": "Mitogen-activated protein kinase 9 (Homo sapiens)",
    "Unit String": "%",
    "inhibition": 68
  },
  {
    "Smiles Str": "CCCN(CCS(C)(=O)=O)Cc1ccc(-c2ccc3ncnc(Nc4ccc(OCc5cccc(F)c5)c(Cl)c4)c3c2)o1",
    "Subject Of Test": "Mitogen-activated protein kinase 9 (Homo sapiens)",
    "Unit String": "%",
    "inhibition": 2.74
  },
  {
    "Smiles Str": "NC(=O)c1sc(-n2cnc3ccc(C(F)(F)F)cc32)cc1OCc1ccccc1Br",
    "Subject Of Test": "Mitogen-activated protein kinase 9 (Homo sapiens)",
    "Unit String": "%",
    "inhibition": 3.06
  },
  {
    "Smiles Str": "CN1CCC(n2cnc(-c3ccc(F)cc3)c2-c2ccnc(Nc3ccccc3)n2)CC1",
    "Subject Of Test": "Mitogen-activated protein kinase 9 (Homo sapiens)",
    "Unit String": "%",
    "inhibition": 28
  },
  {
    "Smiles Str": "CS(=O)(=O)CCNCc1coc(-c2ccc3ncnc(Nc4ccc(OCc5ccccc5)cc4)c3c2)c1",
    "Subject Of Test": "Mitogen-activated protein kinase 9 (Homo sapiens)",
    "Unit String": "%",
    "inhibition": 1.82
  },
  {
    "Smiles Str": "CNC(=O)c1cncc(/C=C/c2ccccc2Cl)c1",
    "Subject Of Test": "Mitogen-activated protein kinase 9 (Homo sapiens)",
    "Unit String": "%",
    "inhibition": -1.14
  },
  {
    "Smiles Str": "O=C(O[C@H]1CN[C@H](C#Cc2cc3ncnc(Nc4ccc(Cc5ccccc5)cc4)c3s2)C1)N1CCOCC1",
    "Subject Of Test": "Mitogen-activated protein kinase 9 (Homo sapiens)",
    "Unit String": "%",
    "inhibition": -0.66
  },
  {
    "Smiles Str": "c1ccc(-c2nc3n(c2-c2ccc4c(c2)OCO4)CCC3)nc1",
    "Subject Of Test": "Mitogen-activated protein kinase 9 (Homo sapiens)",
    "Unit String": "%",
    "inhibition": 1.36
  },
  {
    "Smiles Str": "COc1cc2ncn(-c3cc(OCc4ccccc4C(F)(F)F)c(C(=O)N(C)C)s3)c2cc1OC",
    "Subject Of Test": "Mitogen-activated protein kinase 9 (Homo sapiens)",
    "Unit String": "%",
    "inhibition": 1.07
  }
]
